Dmax listing for selected compounds.
Target: IKZF2 (Homo sapiens, UniProt Q96SW2+Q9UKS7)
Construct: host or cells: Jurkat-IKZF2-HiBiT
Sequence (Q9UKS7 whole entry, one chain of several): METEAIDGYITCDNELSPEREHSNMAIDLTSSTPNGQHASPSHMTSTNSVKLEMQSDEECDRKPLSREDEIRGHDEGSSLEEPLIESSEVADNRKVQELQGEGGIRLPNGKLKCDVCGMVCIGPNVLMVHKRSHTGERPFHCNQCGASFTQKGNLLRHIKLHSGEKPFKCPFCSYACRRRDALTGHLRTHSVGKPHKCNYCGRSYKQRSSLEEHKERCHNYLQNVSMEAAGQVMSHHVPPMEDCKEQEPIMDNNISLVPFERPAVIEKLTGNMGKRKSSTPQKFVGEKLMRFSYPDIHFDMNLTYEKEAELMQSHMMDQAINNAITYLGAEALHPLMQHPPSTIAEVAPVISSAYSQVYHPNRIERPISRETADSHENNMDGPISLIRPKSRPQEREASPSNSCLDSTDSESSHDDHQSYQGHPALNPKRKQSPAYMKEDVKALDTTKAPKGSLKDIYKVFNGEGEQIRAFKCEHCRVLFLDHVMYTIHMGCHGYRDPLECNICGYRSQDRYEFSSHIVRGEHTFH
Test: IKZF2 HiBiT degradation assay (Jurkat-IKZF2-HiBiT)
Format: cell-based
Settings: read-out: IKZF2 degradation Dmax (%)
PROPERTY_NAME: Dmax (%)

INSERT INTO assay_data (compound, reported_value) VALUES
  ('COc1ccc(C(=O)N(C)c2cccc(CN3CCN4c5cc6c(cc5OC[C@@H]4C3)C(=O)N([C@H]3CCC(=O)NC3=O)C6)c2)cc1', 21),
  ('O=C1CCC(N2Cc3cc4c(cc3C2=O)OC[C@@H]2CN(CC3CCCCC3)CCN42)C(=O)N1 (stereo partly drawn)', 56),
  ('O=C1CC[C@H](N2Cc3cc4c(cc3C2=O)OC[C@@H]2CN(Cc3cccc(NC(=O)c5ccccc5Cl)c3)CCN42)C(=O)N1', 45);

====

Target: CRBN/DDB1 (Homo sapiens, UniProt Q96SW2)
Sequence (Q96SW2 whole entry): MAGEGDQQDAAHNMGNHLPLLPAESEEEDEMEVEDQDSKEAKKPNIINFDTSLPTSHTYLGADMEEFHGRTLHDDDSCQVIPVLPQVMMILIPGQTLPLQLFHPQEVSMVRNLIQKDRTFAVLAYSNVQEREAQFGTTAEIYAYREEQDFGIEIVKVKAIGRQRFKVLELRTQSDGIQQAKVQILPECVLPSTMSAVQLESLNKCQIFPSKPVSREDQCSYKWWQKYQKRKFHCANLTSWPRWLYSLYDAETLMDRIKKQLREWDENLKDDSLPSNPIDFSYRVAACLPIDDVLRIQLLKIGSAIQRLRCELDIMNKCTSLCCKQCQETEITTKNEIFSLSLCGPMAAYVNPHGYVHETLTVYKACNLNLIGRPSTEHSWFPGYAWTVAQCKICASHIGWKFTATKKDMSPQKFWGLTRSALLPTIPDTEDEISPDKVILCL
Sequence (Q16531 whole entry, further chain): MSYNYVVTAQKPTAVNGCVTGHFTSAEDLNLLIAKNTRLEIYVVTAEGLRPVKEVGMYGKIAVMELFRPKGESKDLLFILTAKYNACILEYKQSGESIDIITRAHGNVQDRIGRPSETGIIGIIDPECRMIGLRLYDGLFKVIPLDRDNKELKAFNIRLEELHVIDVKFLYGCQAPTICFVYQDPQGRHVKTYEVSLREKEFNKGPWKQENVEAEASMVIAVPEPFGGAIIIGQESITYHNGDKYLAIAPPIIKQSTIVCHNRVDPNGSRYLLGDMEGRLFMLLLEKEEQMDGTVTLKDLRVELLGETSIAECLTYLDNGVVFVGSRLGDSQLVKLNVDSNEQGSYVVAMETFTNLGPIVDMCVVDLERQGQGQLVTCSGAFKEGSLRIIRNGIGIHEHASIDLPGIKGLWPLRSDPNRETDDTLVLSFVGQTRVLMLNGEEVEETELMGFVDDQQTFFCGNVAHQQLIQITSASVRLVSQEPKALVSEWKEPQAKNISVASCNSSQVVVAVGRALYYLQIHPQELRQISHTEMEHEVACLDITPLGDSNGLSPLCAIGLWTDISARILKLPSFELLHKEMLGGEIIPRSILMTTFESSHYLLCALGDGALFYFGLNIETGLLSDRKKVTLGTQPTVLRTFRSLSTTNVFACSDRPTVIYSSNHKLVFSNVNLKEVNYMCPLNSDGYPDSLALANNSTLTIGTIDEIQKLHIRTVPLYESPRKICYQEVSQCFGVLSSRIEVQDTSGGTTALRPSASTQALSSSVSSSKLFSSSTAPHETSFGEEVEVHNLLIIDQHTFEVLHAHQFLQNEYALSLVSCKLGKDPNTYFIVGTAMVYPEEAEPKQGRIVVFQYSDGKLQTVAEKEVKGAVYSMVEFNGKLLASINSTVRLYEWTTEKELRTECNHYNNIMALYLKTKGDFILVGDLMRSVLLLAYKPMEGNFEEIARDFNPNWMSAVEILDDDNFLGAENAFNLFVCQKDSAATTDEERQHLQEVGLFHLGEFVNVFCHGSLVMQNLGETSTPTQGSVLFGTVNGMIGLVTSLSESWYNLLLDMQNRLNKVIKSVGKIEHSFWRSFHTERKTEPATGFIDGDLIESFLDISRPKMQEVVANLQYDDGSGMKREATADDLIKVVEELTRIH
Assay: biochemical
Counter-ions that a name gives are not always drawn.
IC50 listing for selected molecules.
PROPERTY_NAME: IC50 (nM)

INSERT INTO results (molecule, assayed_system, reported_value) VALUES
  ('O=C1CC[C@H](NC(=O)c2cc3c(cc2F)N2CCNC[C@H]2CO3)C(=O)N1 [Compound A1, hydrochloride]', 'CRBN/DDB1 (Homo sapiens, UniProt Q96SW2)', 21800),
  ('O=C1CC[C@H](N2Cc3cc4c(cc3C2=O)OC[C@@H]2CNCCN42)C(=O)N1 [Compound A8, hydrochloride]', 'CRBN/DDB1 (Homo sapiens, UniProt Q96SW2)', 430),
  ('CN1CCN2c3cc(F)c(C(=O)N[C@H]4CCC(=O)NC4=O)cc3OC[C@@H]2C1', 'CRBN/DDB1 (Homo sapiens, UniProt Q96SW2)', 3640),
  ('CC(C)(C)OC(=O)N1CCN2c3cc4c(cc3OC[C@@H]2C1)C(=O)N(C1CCC(=O)NC1=O)C4 (stereo partly shown)', 'CRBN/DDB1 (Homo sapiens, UniProt Q96SW2)', 330);

====

Target: IKZF2 (Homo sapiens, UniProt Q96SW2+Q9UKS7)
Construct: host or cells: Jurkat-IKZF2-HiBiT
Experiment: IKZF2 HiBiT degradation assay (Jurkat-IKZF2-HiBiT)
Assay type: cell-based
Details: read-out: IKZF2 degradation Dmax (%)
Dmax listing for selected molecules.
PROPERTY_NAME: Dmax (%)

INSERT INTO assay_data (molecule, property_name, reported_value) VALUES
  ('COc1ccc(C(=O)Nc2cccc(CN3CCN4c5cc6c(cc5OC[C@@H]4C3)C(=O)N([C@H]3CCC(=O)NC3=O)C6)c2)cc1', 'Dmax', 85),
  ('CC(=O)Nc1cccc(CN2CCN3c4cc5c(cc4OC[C@@H]3C2)C(=O)N([C@H]2CCC(=O)NC2=O)C5)c1', 'Dmax', 33),
  ('O=C1CCC(N2Cc3cc4c(cc3C2=O)OC[C@@H]2CN(CC3CCN(c5ccccc5)CC3)CCN42)C(=O)N1 (stereo partly drawn)', 'Dmax', 50),
  ('Cn1cc(-c2cccc(CN3CCN4c5cc6c(cc5OC[C@@H]4C3)C(=O)N([C@H]3CCC(=O)NC3=O)C6)c2)cn1', 'Dmax', 27),
  ('O=C1CC[C@H](N2Cc3cc4c(cc3C2=O)OC[C@@H]2CN(Cc3cccc(NS(=O)(=O)c5ccccc5)c3)CCN42)C(=O)N1', 'Dmax', 11),
  ('O=C1CC[C@H](N2Cc3cc4c(cc3C2=O)OC[C@@H]2CN(Cc3cccc(NC(=O)c5ccc(Cl)cc5)c3)CCN42)C(=O)N1', 'Dmax', 77);
